molecular target: human recombinant Aurora B (Homo sapiens, UniProt Q96GD4); construct: purchased ThermoFisher PR9210B; assay: Aurora B Kinase Biochemical Assay (ADP-Glo); conditions: selectivity ratio Aurora B vs PLK4
Sequence (Q96GD4 whole entry): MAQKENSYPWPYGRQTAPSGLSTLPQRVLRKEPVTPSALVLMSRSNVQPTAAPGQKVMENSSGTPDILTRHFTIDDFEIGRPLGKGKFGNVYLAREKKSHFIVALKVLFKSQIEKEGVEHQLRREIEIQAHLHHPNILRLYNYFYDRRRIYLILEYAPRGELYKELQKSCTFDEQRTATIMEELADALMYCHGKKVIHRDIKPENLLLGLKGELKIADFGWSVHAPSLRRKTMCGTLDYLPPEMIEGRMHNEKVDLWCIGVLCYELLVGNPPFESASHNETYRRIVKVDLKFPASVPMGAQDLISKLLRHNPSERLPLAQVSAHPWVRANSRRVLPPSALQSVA
Metric: [Aurora B IC50 (nM)]/[PLK4 IC50 (nM)]

COc1ccc2c(c1)[C@]1(C[C@H]1c1ccc3c(Nc4nn(C)cc4OC)n[nH]c3c1)C(=O)N2.O=C(O)C(F)(F)F :: 6.986
COc1ccc2c(c1)[C@]1(C[C@H]1c1ccc3c(Nc4cc(OC)c(S(N)(=O)=O)cc4OC)n[nH]c3c1)C(=O)N2 :: 280
COc1cnc(C)nc1Nc1n[nH]c2cc([C@@H]3C[C@]34C(=O)Nc3ccc(OC(F)(F)F)cc34)ccc12 :: 9.6

I. COc1ccc2c(c1)[C@]1(C[C@H]1c1ccc3c(Nc4nccc5c4OC[C@@H]5CO)n[nH]c3c1)C(=O)N2 (single isomer, unassigned)
II. CCOc1cc(S(=O)(=O)NC)cnc1Nc1n[nH]c2cc([C@@H]3C[C@@]34C(=O)Nc3ccc(OC)cc34)ccc12
III. COc1ccc2c(c1)[C@]1(C[C@H]1c1ccc3c(Nc4ncc(P(C)(C)=O)cc4OC)n[nH]c3c1)C(=O)N2
*Q* Order the entries by their reported [Aurora B IC50 (nM)]/[PLK4 IC50 (nM)], beginning at the minimum. Returns: the labels arranged in the requested order.
*A* I, II, III
